Where these numbers come from: ChEMBL document CHEMBL4813992

experimentSummary: Metabolic stability in human liver microsomes assessed as half life by LC-MS/MS analysis
Assay type: ADME, Microsome
observedProperty: half-life (min)

* O=S1(=O)CC2(OCCO2)c2cc3nccc(Nc4ccc5scnc5c4)c3cc21 | 28.8

###

target: CYP2C19 (Homo sapiens)
Sequence (P33261 whole entry): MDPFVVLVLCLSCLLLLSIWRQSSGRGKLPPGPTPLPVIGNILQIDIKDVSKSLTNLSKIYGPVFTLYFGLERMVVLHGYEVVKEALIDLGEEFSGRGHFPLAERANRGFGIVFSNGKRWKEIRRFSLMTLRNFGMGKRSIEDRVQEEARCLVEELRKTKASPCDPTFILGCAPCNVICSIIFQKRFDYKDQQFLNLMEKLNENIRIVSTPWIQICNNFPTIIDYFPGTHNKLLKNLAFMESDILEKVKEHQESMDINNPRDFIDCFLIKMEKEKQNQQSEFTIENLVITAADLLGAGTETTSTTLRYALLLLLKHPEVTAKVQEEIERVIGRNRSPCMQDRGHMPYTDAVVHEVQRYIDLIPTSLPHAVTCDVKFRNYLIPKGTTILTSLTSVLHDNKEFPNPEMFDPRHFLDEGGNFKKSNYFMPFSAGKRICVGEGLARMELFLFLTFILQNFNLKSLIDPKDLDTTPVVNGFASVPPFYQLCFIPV
experimentSummary: Inhibition of CYP2C19 (unknown origin) at 10 uM incubated for 20 mins by LC-MS/MS analysis
Format: ADME
observedProperty: inhibition at 20 min, 10 µM (%)

* O=S1(=O)CC2(OCCO2)c2cc3nccc(Nc4ccc5scnc5c4)c3cc21 | 19.9

###

target: Voltage-gated inwardly rectifying potassium channel KCNH2 (Homo sapiens)
Sequence (Q12809 whole entry): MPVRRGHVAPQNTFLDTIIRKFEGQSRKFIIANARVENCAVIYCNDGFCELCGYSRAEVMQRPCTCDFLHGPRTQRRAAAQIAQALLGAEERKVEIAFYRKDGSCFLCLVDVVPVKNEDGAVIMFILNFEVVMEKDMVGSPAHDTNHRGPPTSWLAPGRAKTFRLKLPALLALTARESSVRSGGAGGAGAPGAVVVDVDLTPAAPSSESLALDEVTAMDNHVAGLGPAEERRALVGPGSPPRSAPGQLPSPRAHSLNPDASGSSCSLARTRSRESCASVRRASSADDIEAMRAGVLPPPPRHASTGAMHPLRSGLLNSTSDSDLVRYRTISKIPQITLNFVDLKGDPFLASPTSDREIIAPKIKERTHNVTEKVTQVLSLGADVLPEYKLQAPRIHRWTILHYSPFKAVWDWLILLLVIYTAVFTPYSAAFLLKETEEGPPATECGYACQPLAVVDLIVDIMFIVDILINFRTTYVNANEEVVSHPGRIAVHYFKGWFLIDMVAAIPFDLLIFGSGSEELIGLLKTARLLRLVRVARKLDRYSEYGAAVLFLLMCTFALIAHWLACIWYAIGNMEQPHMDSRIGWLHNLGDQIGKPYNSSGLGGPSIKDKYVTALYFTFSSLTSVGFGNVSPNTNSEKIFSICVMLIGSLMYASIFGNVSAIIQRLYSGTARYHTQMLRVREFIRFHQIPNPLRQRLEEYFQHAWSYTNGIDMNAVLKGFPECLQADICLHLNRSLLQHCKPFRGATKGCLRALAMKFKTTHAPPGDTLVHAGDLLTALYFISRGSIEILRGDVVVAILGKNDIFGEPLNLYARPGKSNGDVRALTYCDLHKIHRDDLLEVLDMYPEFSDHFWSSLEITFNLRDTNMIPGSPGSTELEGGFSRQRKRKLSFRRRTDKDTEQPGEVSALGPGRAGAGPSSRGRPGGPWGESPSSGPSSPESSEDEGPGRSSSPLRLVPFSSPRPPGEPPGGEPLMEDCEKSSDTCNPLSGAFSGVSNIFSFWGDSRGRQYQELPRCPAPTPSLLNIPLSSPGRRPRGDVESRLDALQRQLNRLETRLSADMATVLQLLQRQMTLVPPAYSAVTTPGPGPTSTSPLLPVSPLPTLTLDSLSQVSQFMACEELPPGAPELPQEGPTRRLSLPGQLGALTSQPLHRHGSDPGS
experimentSummary: Inhibition of human ERG expressed in CHO-K1 cells by QPatch - automated patch-clamp technology
pIC50: −log10 of the molar value.
observedProperty: pIC50

* O=S1(=O)CC2(OCCO2)c2cc3nccc(Nc4ccc5scnc5c4)c3cc21 | < 4.52

###

Tested on: MEF
experimentSummary: Anti-necroptotic activity in mouse MEF cells assessed as inhibition of TNFalpha/Smac mimetic/Z-VAD-fmk (TSZ)-induced necroptosis by measuring increase in cell viability by celltiter-glo luminescent cell viability assay
Reported EC50 values for the following molecules.
observedProperty: EC50

- CC(C)S(=O)(=O)c1ccc2nccc(Nc3ccc4scnc4c3)c2c1: 2510 nM
- O=S1(=O)CC2(OCCO2)c2cc3nccc(Nc4ccc5scnc5c4)c3cc21: 540 nM
